System: SARS-CoV-2 (USA-WA1/2020 variant)
Assay: Cytopathic effect (CPE) live virus cell viability assay in Vero-E6 cells
Type: cell-based
Details: Severe acute respiratory syndrome coronavirus 2, Vero C1008, 96 h; read-out: EC50 viral CPE assay
pEC50: −log10 of the molar value.
Threshold check on pEC50: at or above 5 gives fulfilled, strictly below gives not fulfilled.

compound: COc1cccc2[nH]c(C(=O)N[C@@H](CC(C)C)C(=O)N[C@@H](C[C@@H]3CCNC3=O)C(=O)COC(=O)c3c(Cl)cccc3Cl)cc12 [Compound 18, reference compound]
study_system: SARS-CoV-2 (USA-WA1/2020 variant)
assigned_category: fulfilled
//
compound: O=C(CN1C(=O)[C@@H](NC(=O)c2ccc3ccccc3n2)COc2ccccc21)N[C@@H](C[C@@H]1CCNC1=O)C(=O)COC(=O)c1c(Cl)cccc1Cl
study_system: SARS-CoV-2 (USA-WA1/2020 variant)
assigned_category: not fulfilled
//
compound: CCC(CC)COC(=O)[C@H](C)N[P@](=O)(OC[C@H]1O[C@@](C#N)(c2ccc3c(N)ncnn23)[C@H](O)[C@@H]1O)Oc1ccccc1 [Remdesivir, reference compound]
study_system: SARS-CoV-2 (USA-WA1/2020 variant)
assigned_category: fulfilled
//
compound: O=C(CN1C(=O)[C@@H](NC(=O)c2ccccc2)COc2ccccc21)N[C@@H](C[C@@H]1CCNC1=O)C(=O)COC(=O)c1c(Cl)cccc1Cl
study_system: SARS-CoV-2 (USA-WA1/2020 variant)
assigned_category: not fulfilled
//
compound: CC(C)C[C@H](NC(=O)OCc1ccccc1)C(=O)N[C@@H](C[C@@H]1CCNC1=O)C(O)S(=O)(=O)O (stereo partly shown) [GC-376, reference compound]
study_system: SARS-CoV-2 (USA-WA1/2020 variant)
assigned_category: fulfilled
//
compound: O=C(CN1C(=O)[C@@H](NC(=O)OCc2ccccc2)COc2ccccc21)N[C@@H](C[C@@H]1CCNC1=O)C(=O)COc1cc(C(F)(F)F)nn1-c1ccc(F)cc1
study_system: SARS-CoV-2 (USA-WA1/2020 variant)
assigned_category: not fulfilled
